Reported Kd, TRAF2 and NCK-interacting protein kinase (Homo sapiens, UniProt Q9UKE5).

Here is how some compounds turned out for Kd.
- COCC(=O)NC/C=C/c1ccc2ncnc(Nc3ccc(Oc4ccc(C)nc4)c(C)c3)c2c1 [CP-724714]: > 10 µM
- NC(=O)c1ccc(-c2nc(-c3ccc4c(c3)OCO4)c(-c3ccccn3)[nH]2)cc1 [SB-431542]: > 10 µM
- Nc1nc(Nc2ccc(S(N)(=O)=O)cc2)nn1C(=O)c1c(F)cccc1F [JNJ-7706621]: > 10 µM

Next item in the queue.
Input: // map Oc1ccc(-c2nc(-c3ccncc3)c(-c3ccc(F)cc3)[nH]2)cc1 [SB-202190] to recorded Kd (system: TRAF2 and NCK-interacting protein kinase (Homo sapiens, UniProt Q9UKE5))
Sequence (Q9UKE5 whole entry): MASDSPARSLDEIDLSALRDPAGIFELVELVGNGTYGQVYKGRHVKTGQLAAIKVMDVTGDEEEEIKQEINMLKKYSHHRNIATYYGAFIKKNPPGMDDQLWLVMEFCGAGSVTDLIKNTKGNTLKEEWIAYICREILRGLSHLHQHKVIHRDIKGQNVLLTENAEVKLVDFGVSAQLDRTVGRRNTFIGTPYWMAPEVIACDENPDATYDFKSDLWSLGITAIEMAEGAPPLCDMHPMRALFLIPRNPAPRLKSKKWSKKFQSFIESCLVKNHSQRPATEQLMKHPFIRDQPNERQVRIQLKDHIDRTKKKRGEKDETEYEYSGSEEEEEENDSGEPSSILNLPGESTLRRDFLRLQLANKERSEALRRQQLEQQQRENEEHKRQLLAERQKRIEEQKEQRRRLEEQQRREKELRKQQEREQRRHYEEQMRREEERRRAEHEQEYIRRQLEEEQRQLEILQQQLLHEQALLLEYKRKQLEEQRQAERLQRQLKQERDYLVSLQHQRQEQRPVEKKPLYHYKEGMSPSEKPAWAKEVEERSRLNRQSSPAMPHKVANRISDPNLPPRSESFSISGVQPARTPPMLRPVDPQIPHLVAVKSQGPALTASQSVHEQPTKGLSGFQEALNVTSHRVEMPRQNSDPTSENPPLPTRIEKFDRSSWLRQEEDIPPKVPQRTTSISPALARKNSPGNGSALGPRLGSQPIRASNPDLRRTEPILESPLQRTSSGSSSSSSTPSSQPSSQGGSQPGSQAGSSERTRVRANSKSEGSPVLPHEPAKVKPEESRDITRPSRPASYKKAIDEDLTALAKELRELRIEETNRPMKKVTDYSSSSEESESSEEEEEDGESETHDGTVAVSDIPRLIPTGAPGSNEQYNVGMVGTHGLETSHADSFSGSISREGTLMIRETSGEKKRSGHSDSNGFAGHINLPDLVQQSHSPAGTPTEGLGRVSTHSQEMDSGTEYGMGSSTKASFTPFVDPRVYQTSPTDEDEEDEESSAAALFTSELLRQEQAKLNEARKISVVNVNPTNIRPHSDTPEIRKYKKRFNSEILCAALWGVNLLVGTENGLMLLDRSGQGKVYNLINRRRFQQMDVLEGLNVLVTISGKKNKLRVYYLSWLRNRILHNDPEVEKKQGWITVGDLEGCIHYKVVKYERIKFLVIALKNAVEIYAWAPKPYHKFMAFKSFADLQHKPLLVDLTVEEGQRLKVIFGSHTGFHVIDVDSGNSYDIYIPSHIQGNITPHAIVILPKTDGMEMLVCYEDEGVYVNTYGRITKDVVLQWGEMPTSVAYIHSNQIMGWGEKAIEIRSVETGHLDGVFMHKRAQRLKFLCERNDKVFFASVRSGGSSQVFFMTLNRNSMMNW
Output: 1.6 µM

----------
molecular target: Serine/threonine-protein kinase MRCK beta (Homo sapiens, UniProt Q9Y5S2)
Sequence (Q9Y5S2 whole entry): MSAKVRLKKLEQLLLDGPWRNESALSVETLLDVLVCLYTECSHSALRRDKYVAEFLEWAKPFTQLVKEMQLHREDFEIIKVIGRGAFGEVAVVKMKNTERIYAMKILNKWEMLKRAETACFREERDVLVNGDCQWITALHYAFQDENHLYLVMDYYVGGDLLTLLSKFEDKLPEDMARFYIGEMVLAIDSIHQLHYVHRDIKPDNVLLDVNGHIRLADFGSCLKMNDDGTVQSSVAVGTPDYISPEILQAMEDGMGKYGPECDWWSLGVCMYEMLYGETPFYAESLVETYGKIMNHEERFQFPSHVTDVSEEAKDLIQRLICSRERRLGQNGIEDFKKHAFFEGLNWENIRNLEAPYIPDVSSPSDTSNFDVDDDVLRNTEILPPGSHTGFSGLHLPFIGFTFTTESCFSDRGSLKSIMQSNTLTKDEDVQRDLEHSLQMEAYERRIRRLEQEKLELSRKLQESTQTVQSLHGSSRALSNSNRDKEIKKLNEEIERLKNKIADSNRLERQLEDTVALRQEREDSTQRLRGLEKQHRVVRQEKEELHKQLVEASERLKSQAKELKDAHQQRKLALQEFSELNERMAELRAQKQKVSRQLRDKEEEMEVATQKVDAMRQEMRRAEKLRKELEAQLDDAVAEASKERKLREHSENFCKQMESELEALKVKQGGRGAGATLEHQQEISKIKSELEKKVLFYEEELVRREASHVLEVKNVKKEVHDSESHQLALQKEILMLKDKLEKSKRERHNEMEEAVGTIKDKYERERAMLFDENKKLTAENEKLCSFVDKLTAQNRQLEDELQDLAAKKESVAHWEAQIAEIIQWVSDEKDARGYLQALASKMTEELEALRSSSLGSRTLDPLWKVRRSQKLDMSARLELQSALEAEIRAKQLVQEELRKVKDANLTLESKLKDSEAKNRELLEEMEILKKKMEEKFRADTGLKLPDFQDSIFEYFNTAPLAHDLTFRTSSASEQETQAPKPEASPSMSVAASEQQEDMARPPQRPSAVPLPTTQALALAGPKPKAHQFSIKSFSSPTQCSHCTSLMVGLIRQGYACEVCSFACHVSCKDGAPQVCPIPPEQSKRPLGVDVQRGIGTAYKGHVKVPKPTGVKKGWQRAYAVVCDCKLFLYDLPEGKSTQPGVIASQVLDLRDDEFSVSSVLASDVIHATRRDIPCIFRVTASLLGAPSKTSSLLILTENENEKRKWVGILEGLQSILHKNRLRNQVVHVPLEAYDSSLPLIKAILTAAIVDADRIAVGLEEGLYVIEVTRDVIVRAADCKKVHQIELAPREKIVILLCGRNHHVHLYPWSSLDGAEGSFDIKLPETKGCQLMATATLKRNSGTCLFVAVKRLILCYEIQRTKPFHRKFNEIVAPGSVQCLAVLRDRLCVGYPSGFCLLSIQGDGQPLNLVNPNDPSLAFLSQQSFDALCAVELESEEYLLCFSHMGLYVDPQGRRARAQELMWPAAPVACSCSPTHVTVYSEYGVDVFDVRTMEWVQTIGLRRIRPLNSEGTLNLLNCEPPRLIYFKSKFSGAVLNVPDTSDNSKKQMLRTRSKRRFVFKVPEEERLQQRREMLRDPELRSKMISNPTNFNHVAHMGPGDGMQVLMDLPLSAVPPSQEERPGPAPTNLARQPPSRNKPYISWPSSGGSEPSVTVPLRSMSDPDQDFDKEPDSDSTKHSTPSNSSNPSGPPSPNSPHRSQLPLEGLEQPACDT
endpointLabel: Kd

Here is how some compounds turned out for Kd.
* NC(=O)c1ccc(-c2nc(-c3ccc4c(c3)OCO4)c(-c3ccccn3)[nH]2)cc1 | > 10 µM
* COCC(=O)NC/C=C/c1ccc2ncnc(Nc3ccc(Oc4ccc(C)nc4)c(C)c3)c2c1 | > 10 µM

Input: // map `Nc1nc(Nc2ccc(S(N)(=O)=O)cc2)nn1C(=O)c1c(F)cccc1F` to recorded Kd (system: Serine/threonine-protein kinase MRCK beta (Homo sapiens, UniProt Q9Y5S2))
Output: > 10 µM

Input: // map `Oc1ccc(-c2nc(-c3ccncc3)c(-c3ccc(F)cc3)[nH]2)cc1` to recorded Kd (system: Serine/threonine-protein kinase MRCK beta (Homo sapiens, UniProt Q9Y5S2))
Output: 4.2 µM

Input: // map `CCOc1cc2ncc(C#N)c(Nc3ccc(F)c(Cl)c3)c2cc1NC(=O)/C=C/CN(C)C` to recorded Kd (system: Serine/threonine-protein kinase MRCK beta (Homo sapiens, UniProt Q9Y5S2))
Output: > 10 µM

----------
biological target: Tyrosine-protein kinase Blk (Homo sapiens, UniProt P51451)
Sequence (P51451 whole entry): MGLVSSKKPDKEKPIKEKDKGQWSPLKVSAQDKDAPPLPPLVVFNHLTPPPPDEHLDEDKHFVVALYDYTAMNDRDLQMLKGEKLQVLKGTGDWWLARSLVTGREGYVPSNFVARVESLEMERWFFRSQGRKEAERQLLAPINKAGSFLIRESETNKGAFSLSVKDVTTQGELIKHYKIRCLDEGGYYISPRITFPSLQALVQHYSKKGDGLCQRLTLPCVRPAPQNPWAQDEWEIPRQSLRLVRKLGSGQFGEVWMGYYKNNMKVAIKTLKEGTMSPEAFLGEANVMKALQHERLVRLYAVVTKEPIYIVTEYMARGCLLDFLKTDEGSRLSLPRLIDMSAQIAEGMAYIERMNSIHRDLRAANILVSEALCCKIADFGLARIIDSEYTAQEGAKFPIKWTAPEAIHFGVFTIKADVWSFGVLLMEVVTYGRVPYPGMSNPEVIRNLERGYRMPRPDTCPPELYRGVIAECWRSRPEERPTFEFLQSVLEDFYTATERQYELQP
Here, each record is paired with measured Kd data.

Here is how some compounds turned out for Kd.
* Nc1nc(Nc2ccc(S(N)(=O)=O)cc2)nn1C(=O)c1c(F)cccc1F | > 10 µM
* CCOc1cc2ncc(C#N)c(Nc3ccc(F)c(Cl)c3)c2cc1NC(=O)/C=C/CN(C)C | 0.078 µM
* Oc1ccc(-c2nc(-c3ccncc3)c(-c3ccc(F)cc3)[nH]2)cc1 | > 10 µM
* NC(=O)c1ccc(-c2nc(-c3ccc4c(c3)OCO4)c(-c3ccccn3)[nH]2)cc1 | > 10 µM

Next item in the queue.
Input: // map `COCC(=O)NC/C=C/c1ccc2ncnc(Nc3ccc(Oc4ccc(C)nc4)c(C)c3)c2c1` to recorded Kd (system: Tyrosine-protein kinase Blk (Homo sapiens, UniProt P51451))
Output: > 10 µM

----------
Reported Kd, AP2-associated protein kinase 1 (Homo sapiens, UniProt Q2M2I8).

Here is how some compounds turned out for Kd.
- NC(=O)c1ccc(-c2nc(-c3ccc4c(c3)OCO4)c(-c3ccccn3)[nH]2)cc1: > 10 µM
- Oc1ccc(-c2nc(-c3ccncc3)c(-c3ccc(F)cc3)[nH]2)cc1: > 10 µM

Input: // map `COCC(=O)NC/C=C/c1ccc2ncnc(Nc3ccc(Oc4ccc(C)nc4)c(C)c3)c2c1` to recorded Kd (system: AP2-associated protein kinase 1 (Homo sapiens, UniProt Q2M2I8))
Sequence (Q2M2I8 whole entry): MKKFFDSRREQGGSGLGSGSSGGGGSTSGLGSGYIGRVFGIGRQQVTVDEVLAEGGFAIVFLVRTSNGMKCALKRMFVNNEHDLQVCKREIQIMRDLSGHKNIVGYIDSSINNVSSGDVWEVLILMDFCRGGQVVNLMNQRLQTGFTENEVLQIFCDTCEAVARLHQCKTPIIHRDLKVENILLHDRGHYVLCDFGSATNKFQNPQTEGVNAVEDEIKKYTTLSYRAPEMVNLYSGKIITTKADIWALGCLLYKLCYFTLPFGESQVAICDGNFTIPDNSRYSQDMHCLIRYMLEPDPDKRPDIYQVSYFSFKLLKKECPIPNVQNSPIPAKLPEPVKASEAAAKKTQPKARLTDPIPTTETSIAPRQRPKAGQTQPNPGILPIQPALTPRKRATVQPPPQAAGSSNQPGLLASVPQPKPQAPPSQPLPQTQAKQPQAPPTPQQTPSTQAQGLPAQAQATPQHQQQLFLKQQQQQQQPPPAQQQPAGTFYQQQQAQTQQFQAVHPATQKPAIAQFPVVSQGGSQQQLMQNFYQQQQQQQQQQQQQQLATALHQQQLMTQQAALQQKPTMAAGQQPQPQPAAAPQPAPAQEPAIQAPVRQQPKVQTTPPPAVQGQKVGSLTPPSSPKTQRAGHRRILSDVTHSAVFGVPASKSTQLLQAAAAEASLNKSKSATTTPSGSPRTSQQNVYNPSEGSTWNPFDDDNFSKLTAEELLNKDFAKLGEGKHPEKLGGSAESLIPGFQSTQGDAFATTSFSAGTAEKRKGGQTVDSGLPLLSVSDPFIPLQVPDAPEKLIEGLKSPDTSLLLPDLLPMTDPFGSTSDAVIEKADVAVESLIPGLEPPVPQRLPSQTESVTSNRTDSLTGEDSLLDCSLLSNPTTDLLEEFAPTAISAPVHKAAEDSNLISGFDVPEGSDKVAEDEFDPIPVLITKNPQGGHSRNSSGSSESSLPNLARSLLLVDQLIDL
Output: > 10 µM
